- testTarget: recombinant sEH (Homo sapiens, UniProt P34913)
- Sequence (P34913 whole entry): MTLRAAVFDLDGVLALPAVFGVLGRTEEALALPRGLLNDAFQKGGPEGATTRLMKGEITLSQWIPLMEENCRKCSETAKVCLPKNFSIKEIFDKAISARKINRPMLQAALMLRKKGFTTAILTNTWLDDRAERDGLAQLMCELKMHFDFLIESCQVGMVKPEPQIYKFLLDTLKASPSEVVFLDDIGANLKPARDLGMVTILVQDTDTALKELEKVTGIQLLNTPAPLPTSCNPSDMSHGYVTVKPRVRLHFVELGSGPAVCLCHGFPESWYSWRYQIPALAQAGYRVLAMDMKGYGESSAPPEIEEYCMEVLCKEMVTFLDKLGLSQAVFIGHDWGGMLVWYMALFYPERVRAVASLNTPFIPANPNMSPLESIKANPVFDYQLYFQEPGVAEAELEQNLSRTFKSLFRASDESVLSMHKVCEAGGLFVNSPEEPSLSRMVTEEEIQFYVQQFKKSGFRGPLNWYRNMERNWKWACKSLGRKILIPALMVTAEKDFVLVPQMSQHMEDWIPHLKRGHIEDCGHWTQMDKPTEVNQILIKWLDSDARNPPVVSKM
- experimentSummary: biochemical screening assay for inhibition of soluble epoxide hydrolase (fluorometric, Phome substrate)
pIC50: −log10 of the molar value.
assayMetric: pIC50

(a) O=C(Nc1ccccc1)NC1COC2C(CCc3ccccc3)COC12 (stereo not shown) [Example 354]
(b) Cc1cccc(NC(=O)NC2COC3C(C#N)COC23)c1 (stereo not shown) [Example 383]
(c) O=C(Nc1ccc(OC(F)(F)F)cc1)N[C@H]1CO[C@H]2[C@@H]1OC[C@@H]2/C=C\c1ccccc1 [Example 332]
# input Please put the entries in order of rising pIC50. Give the labels in the order specified.
# output b, a, c

(P) O=C(NC1CCCCC1)N[C@H]1CO[C@H]2[C@@H]1OC[C@@H]2Oc1ccc(C(F)(F)F)cc1 [Example 101]
(Q) Cc1ncccc1O[C@H]1CO[C@H]2[C@@H]1OC[C@@H]2NC(=O)NC1CCCCC1 [Example 76]
(R) CCN1CC(CNC(=O)N[C@H]2CO[C@H]3[C@@H]2OC[C@@H]3Oc2cccnc2C)CC1=O (stereo partly shown) [Example 254]
(S) O=C(NC1CCCc2ccccc21)N[C@H]1CO[C@H]2[C@@H]1OC[C@@H]2Oc1ccc(F)cc1 (stereo partly shown) [Example 158]
(T) Cc1ncccc1O[C@H]1CO[C@H]2[C@@H]1OC[C@@H]2NC(=O)N[C@H]1CC[C@@H](C)CC1 [Example 272]
# input Endpoint returns the given molecules ordered by ascending pIC50. Give the labels in the order specified.
# output R, S, P, Q, T
(R: 6.05, S: 7.57, P: 8.40, Q: 8.70, T: 9.00)

(P) O=C(NC1CCCCC1)N[C@H]1CO[C@H]2[C@@H]1OC[C@@H]2Oc1cccc(-c2ccccc2)c1 [Example 104]
(Q) COCCCNC(=O)NC1COC2C(Oc3cccnc3C)COC12 (stereo not shown) [Example 175]
(R) CC(C)(C)S[C@H]1CO[C@H]2[C@@H]1OC[C@@H]2NC(=O)NC1CCCCC1 [Example 21]
(S) Cc1ncccc1O[C@H]1CO[C@H]2[C@@H]1OC[C@@H]2NC(=O)NC1CCC(C)(C)CC1 [Example 268]
(T) O=C(NCc1ccc(F)cc1)NC1COC2C(C=Cc3ccccc3)COC12 (stereo not shown) [Example 325]
# input Endpoint returns the given molecules ordered by ascending pIC50. Give the labels in the order specified.
# output Q, T, P, S, R
(Q: 6.01, T: 7.12, P: 8.30, S: 8.70, R: 9.00)

(P) Cc1cccc(CNC(=O)N[C@H]2CO[C@H]3[C@@H]2OC[C@@H]3C#Cc2ccsc2)c1 [Example 305]
(Q) Cc1nc(CCNC(=O)N[C@H]2CO[C@H]3[C@@H]2OC[C@@H]3Oc2cccnc2C)cs1 [Example 218]
(R) O=C(NCCc1ccccc1)N[C@H]1CO[C@H]2[C@@H]1OC[C@@H]2/C=C\c1ccsc1 [Example 344]
# input Arrange these molecules by their pIC50, starting with the largest number. Give the labels in the order specified.
# output R, P, Q
